Source of measurements: patent US8901118B2

Quick record of IC50 values for CYP1A2 (Homo sapiens).

Cc1ccc(Nc2ccc(C(=O)c3c[nH]c4ncnc(NCC(F)(F)F)c34)c(F)n2)cn1    < 5 µM
CCNc1ncnc2[nH]cc(C(=O)c3ccc(Nc4ccc(OC)nc4)nc3F)c12    > 10 µM
COc1cncc(Nc2ccc(C(=O)c3c[nH]c4ncnc(NC(C)C)c34)c(F)n2)c1    < 5 µM
CNc1ncnc2[nH]cc(C(=O)c3ccc(NC4CCC(F)(F)CC4)nc3F)c12    > 10 µM
CC1CCC(Nc2ncc(Cc3c[nH]c4ncc(Cl)cc34)cn2)CC1 (stereo not drawn)    > 10 µM

With those in mind, consider the next molecule.
For the record CCc1ccc(Nc2ccc(C(=O)c3c[nH]c4ncnc(NCCOC)c34)c(F)n2)cn1 , what value of IC50 is listed for CYP1A2 (Homo sapiens)? > 10 µM

---

Here, each record is paired with measured pIC50 data.
ASSAY_SYSTEM: BCR-NTRK1 BaF3 cells (Homo sapiens, UniProt P04629)
Construct: fused on or other part: P11274 (Breakpoint cluster region protein)
Sequence (P04629 510-781): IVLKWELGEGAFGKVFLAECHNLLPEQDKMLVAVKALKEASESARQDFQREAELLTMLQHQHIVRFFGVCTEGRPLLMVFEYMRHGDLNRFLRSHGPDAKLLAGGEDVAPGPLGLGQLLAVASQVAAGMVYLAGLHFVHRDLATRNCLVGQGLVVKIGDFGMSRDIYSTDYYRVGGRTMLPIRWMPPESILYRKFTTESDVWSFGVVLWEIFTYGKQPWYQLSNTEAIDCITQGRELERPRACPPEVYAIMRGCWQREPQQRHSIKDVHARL
PROCEDURE_SUMMARY: BaF3 BCR-NTRK1 cell proliferation assay (ATPlite)
TEST_CONDITIONS: read-out: Inhibition of Cell Proliferation IC50, BCR/BaF3 TrkA
pIC50: −log10 of the molar value.

Reference set (2 entries):
COc1ccc(Nc2ccc(C(=O)c3c[nH]c4ncnc(NC(C)C)c34)c(F)n2)cn1    > 8.00
CNc1ncnc2[nH]cc(C(=O)c3ccc(NC4CCCCC4)nc3Cl)c12    < 6.00

With those in mind, consider the next molecule.
What pIC50 value was documented for this molecule, CCOc1ncnc2[nH]cc(Cc3ccc(Nc4ccc(Br)nc4)nc3F)c12 ? > 6.00

---

ASSAY_SYSTEM: c-Kit kinase (Homo sapiens, UniProt P10721)
Sequence (P10721 26-976): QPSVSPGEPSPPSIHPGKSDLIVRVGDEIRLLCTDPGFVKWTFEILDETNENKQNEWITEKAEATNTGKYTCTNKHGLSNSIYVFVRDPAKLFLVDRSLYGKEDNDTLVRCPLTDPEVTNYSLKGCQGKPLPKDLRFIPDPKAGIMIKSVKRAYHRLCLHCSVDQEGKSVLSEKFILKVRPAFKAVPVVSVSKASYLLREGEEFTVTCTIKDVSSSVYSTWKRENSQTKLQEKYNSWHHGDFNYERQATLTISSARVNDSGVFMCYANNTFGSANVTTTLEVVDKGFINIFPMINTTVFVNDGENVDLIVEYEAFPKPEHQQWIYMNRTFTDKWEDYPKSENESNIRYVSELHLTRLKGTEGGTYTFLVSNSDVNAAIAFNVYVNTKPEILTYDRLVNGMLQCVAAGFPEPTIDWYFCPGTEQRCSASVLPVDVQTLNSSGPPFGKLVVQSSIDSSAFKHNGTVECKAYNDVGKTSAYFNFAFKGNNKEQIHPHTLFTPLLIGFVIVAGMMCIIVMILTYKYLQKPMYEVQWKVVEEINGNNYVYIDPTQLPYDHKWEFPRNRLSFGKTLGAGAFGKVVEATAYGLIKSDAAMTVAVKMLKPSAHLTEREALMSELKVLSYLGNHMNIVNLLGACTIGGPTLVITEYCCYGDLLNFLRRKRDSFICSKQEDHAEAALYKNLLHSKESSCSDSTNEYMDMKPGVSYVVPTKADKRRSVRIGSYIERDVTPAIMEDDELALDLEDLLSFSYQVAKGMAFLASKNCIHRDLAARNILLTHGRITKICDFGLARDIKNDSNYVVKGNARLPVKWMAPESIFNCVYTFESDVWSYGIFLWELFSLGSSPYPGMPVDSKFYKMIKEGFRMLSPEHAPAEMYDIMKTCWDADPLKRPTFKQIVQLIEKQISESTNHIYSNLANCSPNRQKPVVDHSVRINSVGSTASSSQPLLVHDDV
pIC50: −log10 of the molar value.
Here, each record is paired with measured pIC50 data.

Cc1cnc2[nH]cc(C(=O)c3ccc(Nc4ccc(C5CC5)nc4)nc3F)c2c1    > 7.00
CCOc1ncnc2[nH]cc(C(=O)c3ccc(Nc4ccc(OC)nc4)nc3F)c12    < 6.00
CCc1ccc(Nc2ccc(C(=O)c3c[nH]c4ncnc(NC5CCOCC5)c34)c(F)n2)cn1    > 7.00
COc1ccc(Nc2ccc(C(=O)c3c[nH]c4ncnc(N5CCOCC5)c34)c(F)n2)cn1    < 6.00
CCn1cc(Nc2ccc(Cc3c[nH]c4ncnc(C5CC5)c34)c(F)n2)cn1    > 6.00

What pIC50 value was documented for this compound, CCc1ccc(Nc2ccc(C(=O)c3c[nH]c4ncnc(N[C@@H](C)c5ccc(F)cc5)c34)c(F)n2)cn1 ? > 6.00

What pIC50 value was documented for this compound, CCc1ccc(Nc2ccc(Cc3c[nH]c4ncnc(OCCOC)c34)c(F)n2)cn1 ? > 7.00

What pIC50 value was documented for this compound, Clc1cnc2[nH]cc(Cc3cnc(NC4CCCCC4)nc3)c2c1 ? > 6.00

What pIC50 value was documented for this compound, COc1ncnc2[nH]cc(Cc3ccc(Nc4ccc(C5CC5)nc4)nc3F)c12 ? > 7.00

---

ASSAY_SYSTEM: BCR-NTRK1 BaF3 cells (Homo sapiens, UniProt P04629)
Construct: fused on or other part: P11274 (Breakpoint cluster region protein)
PROCEDURE_SUMMARY: BaF3 BCR-NTRK1 cell proliferation assay (ATPlite)
TEST_CONDITIONS: read-out: Inhibition of Cell Proliferation IC50, BCR/BaF3 TrkA
pIC50: −log10 of the molar value.
Here, each record is paired with measured pIC50 data.

Reference set (3 entries):
O=C(c1ccc(Nc2ccc(C3CC3)nc2)nc1F)c1c[nH]c2ncccc12    > 7.00
CCn1ccc(Nc2ncc(Cc3c[nH]c4ncc(C)cc34)cn2)n1    > 6.00
CCc1ccc(Nc2ccc(C(=O)c3c[nH]c4ncnc(N[C@@H](C)c5ccc(F)cc5)c34)c(F)n2)cn1    > 7.00

With those in mind, consider the next molecule.
What pIC50 value was documented for this molecule, COc1cncc(Nc2ccc(C(=O)c3c[nH]c4ncnc(NC(C)C)c34)c(F)n2)c1 ? > 7.00
